# system: EZH1 (Homo sapiens)
# methodNotes: AlphaLISA enzyme activity inhibition, EZH1
# Format: biochemical
# particulars: 5nM test substance
I would appreciate it if you labelled entries 1 when inhibition at 0.005 µM is 40% or higher, otherwise 0.

>  <compound>
COCCN(C)[C@H]1CC[C@H](C2(C)Oc3c(-c4cnc(N(C)C)nc4)cc(C(=O)NCc4c(SC)cc(C)[nH]c4=O)c(C)c3O2)CC1 (relative stereo) [Compound 26]

>  <system>
EZH1 (Homo sapiens)

>  <answerLabel>
1

$$$$
>  <compound>
CSc1cc(C)[nH]c(=O)c1CNC(=O)c1cc(-c2cnc(N3CCCCC3)nc2)c2c(c1C)OC(C)(C1CCN(CC(F)(F)F)CC1)O2 (centres unmarked) [Compound 39]

>  <system>
EZH1 (Homo sapiens)

>  <answerLabel>
0

$$$$
>  <compound>
CSc1cc(C)[nH]c(=O)c1CNC(=O)c1cc(-c2ccc(N3C[C@@H](C)O[C@@H](C)C3)nc2)c2c(c1C)OC(C)(C1CCN(CC(F)(F)F)CC1)O2 (some centres unmarked) [Compound 33]

>  <system>
EZH1 (Homo sapiens)

>  <answerLabel>
0

$$$$
>  <compound>
CCN(C)[C@H]1CC[C@H](C2(C)Oc3c(-c4ccc(N5C[C@@H](C)O[C@@H](C)C5)nc4)cc(C(=O)NCc4c(SC)cc(C)[nH]c4=O)c(C)c3O2)CC1 (some centres unmarked) [Compound 111]

>  <system>
EZH1 (Homo sapiens)

>  <answerLabel>
0

$$$$
>  <compound>
CCN1CCC(C2(C)Oc3c(-c4ccc(N5C[C@@H](C)O[C@@H](C)C5)nc4)cc(C(=O)NCc4c(SC)cc(C)[nH]c4=O)c(C)c3O2)CC1 (single isomer, unassigned) [Compound 49]

>  <system>
EZH1 (Homo sapiens)

>  <answerLabel>
1

$$$$

----------
Listed here: items and their measured inhibition at 0.01 µM.
# system: UniProt Q92800
# methodNotes: AlphaLISA enzyme activity inhibition, EZH1
# Format: biochemical
# particulars: 10nM test substance
endpointLabel: inhibition at 0.01 µM

>  <compound>
CSc1cc(C)[nH]c(=O)c1CNC(=O)c1cc(-c2ccc(N3CCCCC3)cc2)c2c(c1C)OC(C)(C1CCN(CC(F)(F)F)CC1)O2 (centres unmarked) [Compound 90]

>  <endpointLabel>
inhibition at 0.01 µM

>  <result>
16.2%

$$$$
>  <compound>
CSc1cc(C)[nH]c(=O)c1CNC(=O)c1cc(-c2ccc(N3C[C@@H](C)O[C@@H](C)C3)nc2)c2c(c1C)OC(C)(C1CCN(C(C)C)CC1)O2 (single isomer, unassigned) [Compound 51]

>  <endpointLabel>
inhibition at 0.01 µM

>  <result>
93%

$$$$
>  <compound>
CCCCN(C)c1ncc(-c2cc(C(=O)NCc3c(SC)cc(C)[nH]c3=O)c(C)c3c2OC(C)(C2CCN(CC(F)(F)F)CC2)O3)cn1 (centres unmarked) [Compound 99]

>  <endpointLabel>
inhibition at 0.01 µM

>  <result>
42.9%

$$$$
>  <compound>
CCN(C)[C@H]1CC[C@H](C2(C)Oc3c(-c4ccc(N5C[C@@H](C)O[C@@H](C)C5)nc4)cc(C(=O)NCc4c(SC)cc(C)[nH]c4=O)c(C)c3O2)CC1 (some centres unmarked) [Compound 111]

>  <endpointLabel>
inhibition at 0.01 µM

>  <result>
62.1%

$$$$
>  <compound>
CCN1CCC(C2(C)Oc3c(-c4ccc(N(C)CC)nc4)cc(C(=O)NCc4c(SC)cc(C)[nH]c4=O)c(C)c3O2)CC1 (single isomer, unassigned) [Compound 89]

>  <endpointLabel>
inhibition at 0.01 µM

>  <result>
71%

$$$$

----------
# Tested on: Lovo cells
# methodNotes: Cancer cell proliferation inhibition (Cell Counting Kit-8), colorectal cancer cell line
# Type: cell-based
# particulars: Homo sapiens, LoVo, 264 h, 1000 nM, cultured seven to 11 days; read-out: % inhibition rate LoVo

>  <compound>
CSc1cc(C)[nH]c(=O)c1CNC(=O)c1cc(-c2cnc(N3CCOCC3)nc2)c2c(c1C)OC(C)(C1CCN(CC(F)(F)F)CC1)O2 (single isomer, unassigned) [Compound 69]

>  <system>
Lovo cells

>  <inhibition at 1 µM>
≥ 70%

$$$$
>  <compound>
CSc1cc(C)[nH]c(=O)c1CNC(=O)c1cc(-c2cnc(N3C[C@@H](C)O[C@@H](C)C3)nc2)c2c(c1C)OC(C)([C@H]1CC[C@H](N(C)CC(F)(F)F)CC1)O2 (some centres unmarked)

>  <system>
Lovo cells

>  <inhibition at 1 µM>
≥ 70%

$$$$
>  <compound>
COCCN(C)[C@H]1CC[C@H](C2(C)Oc3c(-c4ccc(N5C[C@@H](C)O[C@@H](C)C5)nc4)cc(C(=O)NCc4c(SC)cc(C)[nH]c4=O)c(C)c3O2)CC1 (some centres unmarked)

>  <system>
Lovo cells

>  <inhibition at 1 µM>
≥ 70%

$$$$
>  <compound>
CCN1CCC(C2(C)Oc3c(-c4ccc(N(C)CC)nc4)cc(C(=O)NCc4c(SC)cc(C)[nH]c4=O)c(C)c3O2)CC1 (single isomer, unassigned)

>  <system>
Lovo cells

>  <inhibition at 1 µM>
≥ 70%

$$$$
>  <compound>
COC1CN([C@H]2CC[C@H](C3(C)Oc4c(-c5ccc(N6C[C@@H](C)O[C@@H](C)C6)nc5)cc(C(=O)NCc5c(SC)cc(C)[nH]c5=O)c(C)c4O3)CC2)C1 (some centres unmarked)

>  <system>
Lovo cells

>  <inhibition at 1 µM>
≥ 70%

$$$$

----------
# system: EZH1 (Homo sapiens, UniProt Q92800)
# Sequence (Q92800 whole entry, species assumed): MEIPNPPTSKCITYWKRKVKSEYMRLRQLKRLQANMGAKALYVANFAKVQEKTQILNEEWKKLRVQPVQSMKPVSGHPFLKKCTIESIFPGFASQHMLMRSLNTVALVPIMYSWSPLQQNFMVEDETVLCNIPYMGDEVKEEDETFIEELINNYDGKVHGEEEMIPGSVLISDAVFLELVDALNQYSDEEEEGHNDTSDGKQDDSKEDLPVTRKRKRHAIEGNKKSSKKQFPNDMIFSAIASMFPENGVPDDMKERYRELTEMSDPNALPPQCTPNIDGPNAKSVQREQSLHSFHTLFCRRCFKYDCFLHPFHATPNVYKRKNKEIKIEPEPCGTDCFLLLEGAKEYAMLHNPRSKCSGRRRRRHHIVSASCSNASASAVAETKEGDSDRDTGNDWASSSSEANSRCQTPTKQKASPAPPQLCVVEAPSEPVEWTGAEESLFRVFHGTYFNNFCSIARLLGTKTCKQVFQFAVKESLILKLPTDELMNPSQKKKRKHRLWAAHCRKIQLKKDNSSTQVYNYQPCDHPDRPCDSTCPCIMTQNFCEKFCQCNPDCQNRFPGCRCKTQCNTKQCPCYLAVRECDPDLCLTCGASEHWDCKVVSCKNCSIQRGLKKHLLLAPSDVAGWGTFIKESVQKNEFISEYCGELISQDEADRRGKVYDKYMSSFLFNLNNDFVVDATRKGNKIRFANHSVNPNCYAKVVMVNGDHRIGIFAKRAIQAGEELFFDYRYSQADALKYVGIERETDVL
# Sequence (O75530 whole entry partner, species assumed): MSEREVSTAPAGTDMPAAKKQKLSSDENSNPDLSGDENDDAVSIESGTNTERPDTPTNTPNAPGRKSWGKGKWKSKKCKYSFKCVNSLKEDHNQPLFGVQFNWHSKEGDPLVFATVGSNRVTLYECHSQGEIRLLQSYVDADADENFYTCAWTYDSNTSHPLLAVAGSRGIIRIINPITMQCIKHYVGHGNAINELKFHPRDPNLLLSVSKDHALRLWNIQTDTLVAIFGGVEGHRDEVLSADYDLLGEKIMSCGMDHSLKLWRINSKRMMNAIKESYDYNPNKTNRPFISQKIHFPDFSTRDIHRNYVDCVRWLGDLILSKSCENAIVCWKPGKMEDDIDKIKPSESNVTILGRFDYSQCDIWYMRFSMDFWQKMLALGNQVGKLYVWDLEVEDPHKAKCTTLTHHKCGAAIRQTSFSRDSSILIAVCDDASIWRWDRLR
# Sequence (Q15022 whole entry partner, species assumed): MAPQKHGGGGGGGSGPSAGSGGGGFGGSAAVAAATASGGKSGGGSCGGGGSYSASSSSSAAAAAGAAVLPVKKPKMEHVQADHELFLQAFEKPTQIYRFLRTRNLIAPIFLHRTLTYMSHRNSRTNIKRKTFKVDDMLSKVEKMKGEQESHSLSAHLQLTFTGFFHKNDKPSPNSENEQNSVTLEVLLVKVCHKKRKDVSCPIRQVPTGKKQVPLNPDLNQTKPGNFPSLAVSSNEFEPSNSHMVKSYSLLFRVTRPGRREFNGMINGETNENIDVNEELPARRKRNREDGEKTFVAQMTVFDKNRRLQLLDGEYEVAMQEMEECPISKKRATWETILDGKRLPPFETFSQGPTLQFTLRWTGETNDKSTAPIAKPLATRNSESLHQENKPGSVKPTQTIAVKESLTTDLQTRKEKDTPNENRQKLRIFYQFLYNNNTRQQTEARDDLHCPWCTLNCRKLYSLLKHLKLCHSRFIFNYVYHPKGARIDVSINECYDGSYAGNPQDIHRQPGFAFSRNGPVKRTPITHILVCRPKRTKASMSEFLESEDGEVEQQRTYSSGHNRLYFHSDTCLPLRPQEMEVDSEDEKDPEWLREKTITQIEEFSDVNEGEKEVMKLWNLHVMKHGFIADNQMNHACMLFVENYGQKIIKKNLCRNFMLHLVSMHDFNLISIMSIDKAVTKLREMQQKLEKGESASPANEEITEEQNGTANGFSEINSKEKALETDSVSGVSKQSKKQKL
# methodNotes: AlphaLISA enzyme activity inhibition, EZH1
# Assay type: biochemical
# particulars: 5nM test substance

>  <compound>
CSc1cc(C)[nH]c(=O)c1CNC(=O)c1cc(-c2cnc(N3C[C@@H](C)O[C@@H](C)C3)nc2)c2c(c1C)OC(C)([C@H]1CC[C@H](N(C)CC(F)(F)F)CC1)O2 (some centres unmarked)

>  <inhibition at 0.005 µM / %>
31.4

$$$$
>  <compound>
CSc1cc(C)[nH]c(=O)c1CNC(=O)c1cc(-c2c(C)noc2C)c2c(c1C)OC(C)([C@H]1CC[C@H](N(C)C)CC1)O2 (relative stereo)

>  <inhibition at 0.005 µM / %>
53.7

$$$$
>  <compound>
CSc1cc(C)[nH]c(=O)c1CNC(=O)c1cc(-c2cnc(N3CCCCC3)nc2)c2c(c1C)OC(C)([C@H]1CC[C@H](N(C)CC(F)(F)F)CC1)O2 (relative stereo)

>  <inhibition at 0.005 µM / %>
20.6

$$$$
>  <compound>
CSc1cc(C)[nH]c(=O)c1CNC(=O)c1cc(-c2ccc(N3C[C@@H](C)O[C@@H](C)C3)nc2)c2c(c1C)OC(C)([C@H]1CC[C@H](N(C)C3CCCCC3)CC1)O2 (some centres unmarked)

>  <inhibition at 0.005 µM / %>
28.6

$$$$
>  <compound>
CSc1cc(C)[nH]c(=O)c1CNC(=O)c1cc(-c2cnc(N(C)C)nc2)c2c(c1C)OC(C)([C@H]1CC[C@H](N(C)CC(F)(F)F)CC1)O2 (relative stereo)

>  <inhibition at 0.005 µM / %>
53.1

$$$$

----------
Listed here: items and their measured inhibition at 0.005 µM.
# system: EZH2 (Homo sapiens, UniProt Q15910)
# Sequence (Q15910 whole entry, species assumed): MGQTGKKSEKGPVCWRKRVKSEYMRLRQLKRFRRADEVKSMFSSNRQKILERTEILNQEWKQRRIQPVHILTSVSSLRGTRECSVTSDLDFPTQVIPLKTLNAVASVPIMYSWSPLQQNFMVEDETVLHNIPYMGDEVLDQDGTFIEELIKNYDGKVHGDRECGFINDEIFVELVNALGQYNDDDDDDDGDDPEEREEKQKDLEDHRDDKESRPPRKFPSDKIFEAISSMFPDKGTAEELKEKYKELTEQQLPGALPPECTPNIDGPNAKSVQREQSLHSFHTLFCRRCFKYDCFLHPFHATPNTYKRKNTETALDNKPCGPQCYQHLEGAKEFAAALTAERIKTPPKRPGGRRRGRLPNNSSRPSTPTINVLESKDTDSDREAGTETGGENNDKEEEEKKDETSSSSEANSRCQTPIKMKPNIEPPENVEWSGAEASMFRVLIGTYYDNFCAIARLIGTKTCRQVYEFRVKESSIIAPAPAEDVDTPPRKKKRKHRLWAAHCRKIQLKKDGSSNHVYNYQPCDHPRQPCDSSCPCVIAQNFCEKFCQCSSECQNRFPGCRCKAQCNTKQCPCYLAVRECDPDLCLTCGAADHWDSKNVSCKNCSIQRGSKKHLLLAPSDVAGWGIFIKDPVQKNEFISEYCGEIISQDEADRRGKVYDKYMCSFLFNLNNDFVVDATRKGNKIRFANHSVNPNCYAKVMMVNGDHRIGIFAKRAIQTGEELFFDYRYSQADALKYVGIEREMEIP
# Sequence (O75530 whole entry partner, species assumed): as the sequence (O75530 whole entry partner, species assumed) above
# Sequence (Q15022 whole entry partner, species assumed): as the sequence (Q15022 whole entry partner, species assumed) above
# methodNotes: AlphaLISA enzyme activity inhibition, EZH2
# Assay type: biochemical
# particulars: 5nM test substance

>  <compound>
CSc1cc(C)[nH]c(=O)c1CNC(=O)c1cc(-c2ccc(N3CC(C)CC(C)C3)nc2)c2c(c1C)OC(C)([C@H]1CC[C@H](N(C)C)CC1)O2 (relative stereo)

>  <system>
EZH2 (Homo sapiens, UniProt Q15910)

>  <inhibition at 0.005 µM, %>
92.4

$$$$
>  <compound>
CSc1cc(C)[nH]c(=O)c1CNC(=O)c1cc(-c2ccsc2)c2c(c1C)OC(C)([C@H]1CC[C@H](N(C)C)CC1)O2 (relative stereo)

>  <system>
EZH2 (Homo sapiens, UniProt Q15910)

>  <inhibition at 0.005 µM, %>
98.9

$$$$
>  <compound>
CSc1cc(C)[nH]c(=O)c1CNC(=O)c1cc(-c2ccc(N3CCCCC3)nc2)c2c(c1C)OC(C)(C1CCN(CC(F)(F)F)CC1)O2 (stereo not drawn)

>  <system>
EZH2 (Homo sapiens, UniProt Q15910)

>  <inhibition at 0.005 µM, %>
47.4

$$$$

----------
# Tested on: SW-13 cells
# methodNotes: Cancer cell proliferation inhibition (Cell Counting Kit-8), adrenal cancer cell line
# Format: cell-based
# particulars: Homo sapiens, SW13, 264 h, 1000 nM, cultured seven to 11 days; read-out: % inhibition rate SW-13
Structures can show the parent of a compound that is named as a salt.
endpointLabel: inhibition at 1 µM

>  <compound>
CSc1cc(C)[nH]c(=O)c1CNC(=O)c1cc(-c2ccc(N3CCSCC3)nc2)c2c(c1C)OC(C)(C1CCN(CC(F)(F)F)CC1)O2 (stereo not shown)

>  <endpointLabel>
inhibition at 1 µM

>  <result>
≤ 30%

$$$$
>  <compound>
CSc1cc(C)[nH]c(=O)c1CNC(=O)c1cc(-c2ccc(N3C[C@@H](C)O[C@@H](C)C3)nc2)c2c(c1C)OC(C)([C@H]1CC[C@H](N)CC1)O2 (stereo partly shown) [Compound 100, hydrochloride]

>  <endpointLabel>
inhibition at 1 µM

>  <result>
30 to 70%

$$$$
>  <compound>
CSc1cc(C)[nH]c(=O)c1CNC(=O)c1cc(-c2ccc3occc3c2)c2c(c1C)OC(C)(C1CCN(CC(F)(F)F)CC1)O2 (stereo not shown)

>  <endpointLabel>
inhibition at 1 µM

>  <result>
≤ 30%

$$$$
>  <compound>
CSc1cc(C)[nH]c(=O)c1CNC(=O)c1cc(-c2cnc(N3CCC(F)(F)CC3)nc2)c2c(c1C)OC(C)([C@H]1CC[C@H](N(C)C)CC1)O2 (relative stereo)

>  <endpointLabel>
inhibition at 1 µM

>  <result>
30 to 70%

$$$$
>  <compound>
CSc1cc(C)[nH]c(=O)c1CNC(=O)c1cc(-c2cnc(N(C)C)nc2)c2c(c1C)OC(C)([C@H]1CC[C@H](N(C)CC(F)(F)F)CC1)O2 (relative stereo)

>  <endpointLabel>
inhibition at 1 µM

>  <result>
≤ 30%

$$$$
>  <compound>
CCCOCCN(C)[C@H]1CC[C@H](C2(C)Oc3c(-c4ccc(N5C[C@@H](C)O[C@@H](C)C5)nc4)cc(C(=O)NCc4c(SC)cc(C)[nH]c4=O)c(C)c3O2)CC1 (stereo partly shown)

>  <endpointLabel>
inhibition at 1 µM

>  <result>
30 to 70%

$$$$
>  <compound>
COc1ccc(F)cc1-c1cc(C(=O)NCc2c(SC)cc(C)[nH]c2=O)c(C)c2c1OC(C)(C1CCC(N(C)C)CC1)O2 (stereo not shown)

>  <endpointLabel>
inhibition at 1 µM

>  <result>
≤ 30%

$$$$
